Biological target: Aurora kinase A (Homo sapiens) (UniProt O14965)
Sequence (O14965 whole entry): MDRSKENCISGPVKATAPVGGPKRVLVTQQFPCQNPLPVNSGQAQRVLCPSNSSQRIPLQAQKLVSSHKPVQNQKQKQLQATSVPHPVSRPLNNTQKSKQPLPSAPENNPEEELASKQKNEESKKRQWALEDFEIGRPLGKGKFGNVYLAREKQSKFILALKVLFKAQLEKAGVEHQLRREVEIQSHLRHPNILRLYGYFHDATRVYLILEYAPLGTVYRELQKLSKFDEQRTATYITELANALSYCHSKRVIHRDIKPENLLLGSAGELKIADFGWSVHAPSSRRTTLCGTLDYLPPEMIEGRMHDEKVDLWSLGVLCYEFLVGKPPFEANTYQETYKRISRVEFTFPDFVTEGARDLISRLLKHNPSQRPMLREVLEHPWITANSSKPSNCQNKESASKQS
Assay: Inhibition of Aurora A up to 100 uM
The source made the active and inactive calls. No cut-off for these calls is given here.
metric.name: inhibition

Field: example entries. Status: answers known.
Nc1ncnc2ncn(CC(=O)c3c[nH]c4ccccc34)c12; inactive
COc1ncnc2ncn(CC(=O)c3ccccc3)c12; inactive
COc1ncnc2c1ncn2CC(=O)c1ccccc1; inactive
Nc1ncnc2c1ncn2CC(=O)c1ccccn1; inactive
Nc1ncnc2c1ncn2CC(=O)c1ccccc1; inactive

Lookup: Sample "Nc1ncnc2c1ncn2CC(=O)c1cccnc1" — what was its inhibition?
Found: inactive

====

Molecular target: Angiopoietin-1 receptor (Homo sapiens)
Sequence (Q02763 whole entry): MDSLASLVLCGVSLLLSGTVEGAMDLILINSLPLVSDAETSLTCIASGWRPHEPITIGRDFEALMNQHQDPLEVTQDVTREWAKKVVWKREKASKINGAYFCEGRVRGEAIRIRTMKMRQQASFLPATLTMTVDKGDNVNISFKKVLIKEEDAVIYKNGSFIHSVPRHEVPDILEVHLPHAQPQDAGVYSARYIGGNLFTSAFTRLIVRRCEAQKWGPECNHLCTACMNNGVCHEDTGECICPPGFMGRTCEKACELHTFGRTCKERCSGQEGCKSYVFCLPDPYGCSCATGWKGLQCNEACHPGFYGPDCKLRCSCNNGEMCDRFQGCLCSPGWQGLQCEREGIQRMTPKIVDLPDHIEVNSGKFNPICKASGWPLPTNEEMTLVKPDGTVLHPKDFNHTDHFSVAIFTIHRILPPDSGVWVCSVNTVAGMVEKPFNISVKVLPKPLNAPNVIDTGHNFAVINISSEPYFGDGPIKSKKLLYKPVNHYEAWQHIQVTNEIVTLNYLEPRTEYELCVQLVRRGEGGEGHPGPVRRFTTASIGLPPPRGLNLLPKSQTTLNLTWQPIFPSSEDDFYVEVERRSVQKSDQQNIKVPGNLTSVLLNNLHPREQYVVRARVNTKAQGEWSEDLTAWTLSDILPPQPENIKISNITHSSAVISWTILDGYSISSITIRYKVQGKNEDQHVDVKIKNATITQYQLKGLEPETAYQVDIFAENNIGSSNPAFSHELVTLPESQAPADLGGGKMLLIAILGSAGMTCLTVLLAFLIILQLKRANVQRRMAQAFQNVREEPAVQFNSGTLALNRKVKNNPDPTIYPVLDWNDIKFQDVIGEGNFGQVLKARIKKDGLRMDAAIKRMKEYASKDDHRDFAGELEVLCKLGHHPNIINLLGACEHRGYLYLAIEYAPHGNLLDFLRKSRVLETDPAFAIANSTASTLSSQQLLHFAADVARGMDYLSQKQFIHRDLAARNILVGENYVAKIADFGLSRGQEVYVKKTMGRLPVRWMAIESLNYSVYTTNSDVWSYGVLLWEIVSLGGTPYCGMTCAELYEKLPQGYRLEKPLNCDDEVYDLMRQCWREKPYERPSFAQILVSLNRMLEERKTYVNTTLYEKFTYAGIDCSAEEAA
metric.name: pIC50
Note on pIC50: it is the negative log10 of concentration, concentration in mol/L.

Lookup: Return pIC50 measured with Angiopoietin-1 receptor (Homo sapiens) given this compound: "Nc1ncnc2ncn(CC(=O)c3c[nH]c4ccccc34)c12"
Found: 4.02

====

Target: Insulin receptor (Homo sapiens) (UniProt P06213)
Sequence (P06213 28-758 limits assumed): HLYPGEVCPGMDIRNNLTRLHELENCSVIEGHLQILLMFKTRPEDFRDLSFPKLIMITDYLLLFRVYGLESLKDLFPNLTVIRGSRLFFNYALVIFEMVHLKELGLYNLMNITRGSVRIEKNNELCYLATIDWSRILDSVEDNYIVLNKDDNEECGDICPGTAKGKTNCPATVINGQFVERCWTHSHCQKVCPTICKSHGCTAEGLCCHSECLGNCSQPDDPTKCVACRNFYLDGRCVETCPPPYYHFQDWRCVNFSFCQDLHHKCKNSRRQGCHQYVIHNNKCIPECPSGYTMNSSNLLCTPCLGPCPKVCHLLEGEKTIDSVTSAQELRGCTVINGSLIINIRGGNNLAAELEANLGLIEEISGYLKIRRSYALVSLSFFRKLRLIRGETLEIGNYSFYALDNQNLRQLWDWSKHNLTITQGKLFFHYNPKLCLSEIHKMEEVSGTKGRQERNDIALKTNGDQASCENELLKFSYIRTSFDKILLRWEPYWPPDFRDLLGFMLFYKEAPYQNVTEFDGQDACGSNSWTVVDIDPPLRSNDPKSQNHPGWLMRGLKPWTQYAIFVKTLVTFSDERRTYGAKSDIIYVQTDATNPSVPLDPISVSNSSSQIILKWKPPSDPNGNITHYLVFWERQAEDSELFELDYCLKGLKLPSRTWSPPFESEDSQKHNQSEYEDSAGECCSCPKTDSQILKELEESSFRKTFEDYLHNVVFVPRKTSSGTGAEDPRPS
Sequence (P06213 763-1382 limits assumed): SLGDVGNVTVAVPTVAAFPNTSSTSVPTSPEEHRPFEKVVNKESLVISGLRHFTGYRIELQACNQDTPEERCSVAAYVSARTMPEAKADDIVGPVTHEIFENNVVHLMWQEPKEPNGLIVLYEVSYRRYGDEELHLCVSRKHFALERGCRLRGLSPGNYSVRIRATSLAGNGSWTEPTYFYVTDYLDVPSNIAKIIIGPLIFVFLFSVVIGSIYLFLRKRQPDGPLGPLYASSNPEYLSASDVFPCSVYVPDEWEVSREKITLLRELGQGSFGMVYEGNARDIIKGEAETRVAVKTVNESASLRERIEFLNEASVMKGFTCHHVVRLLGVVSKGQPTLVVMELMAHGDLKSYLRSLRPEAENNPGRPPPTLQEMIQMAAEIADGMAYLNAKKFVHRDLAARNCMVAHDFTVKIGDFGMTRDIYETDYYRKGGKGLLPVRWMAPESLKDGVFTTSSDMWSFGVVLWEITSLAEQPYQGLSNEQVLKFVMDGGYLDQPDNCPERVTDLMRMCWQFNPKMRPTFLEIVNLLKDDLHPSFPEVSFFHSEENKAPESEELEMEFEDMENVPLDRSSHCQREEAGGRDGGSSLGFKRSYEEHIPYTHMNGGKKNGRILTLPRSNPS
Test: Inhibition of INSR up to 100 uM
Activity calls are given as the source filed them. The calls are words filed in the database; no cut-off is given here.
metric.name: inhibition

Solved cases below.
COc1ncnc2c1ncn2CC(=O)c1ccccc1; inactive
Nc1ncnc2ncn(CC(=O)c3ccccc3)c12; inactive
Nc1ncnc2c1ncn2CC(=O)c1c[nH]c2ccccc12; inactive
Nc1ncnc2c1ncn2CC(=O)c1cccnc1; inactive
Nc1ncnc2ncn(CC(=O)c3c[nH]c4ccccc34)c12; inactive
Nc1ncnc2c1ncn2CC(=O)c1ccccc1; inactive
CN(C)c1ncnc2c1ncn2CC(=O)c1c[nH]c2ccccc12; inactive
COc1ncnc2ncn(CC(=O)c3ccccc3)c12; inactive

Shifting focus to the molecule that follows.
Lookup: Any idea what inhibition was measured for "Nc1ncnc2c1ncn2CC(=O)c1ccccn1" ?
Found: inactive

====

Molecular target: Serine/threonine-protein kinase B-raf (Homo sapiens, UniProt P15056, V600E)
Experiment: Inhibition of BRAF V600E mutant
metric.name: pIC50
// scale note: pIC50 = -log10(conc_M); give the bare number

Lookup: Short answer please: pIC50, Serine/threonine-protein kinase B-raf (Homo sapiens, UniProt P15056, V600E), entry "Nc1ncnc2c1ncn2CC(=O)c1c[nH]c2ccccc12"
Found: 4.09

====

Biological target: UniProt P08581
Experiment: Inhibition of MET up to 100 uM
Activity calls are given as the source filed them. The rule behind the calls is not given here.
metric.name: inhibition

Worked set:
COc1ncnc2c1ncn2CC(=O)c1ccccc1; inactive
Nc1ncnc2c1ncn2CC(=O)c1ccccc1; inactive
Nc1ncnc2ncn(CC(=O)c3c[nH]c4ccccc34)c12; inactive
COc1ncnc2ncn(CC(=O)c3ccccc3)c12; inactive
CN(C)c1ncnc2c1ncn2CC(=O)c1c[nH]c2ccccc12; inactive

Lookup: Can you share its inhibition? I mean this molecule: "Nc1ncnc2ncn(CC(=O)c3ccccc3)c12"
Found: inactive

====

Target: Aurora kinase B (Homo sapiens, UniProt Q96GD4)
Sequence (Q96GD4 whole entry): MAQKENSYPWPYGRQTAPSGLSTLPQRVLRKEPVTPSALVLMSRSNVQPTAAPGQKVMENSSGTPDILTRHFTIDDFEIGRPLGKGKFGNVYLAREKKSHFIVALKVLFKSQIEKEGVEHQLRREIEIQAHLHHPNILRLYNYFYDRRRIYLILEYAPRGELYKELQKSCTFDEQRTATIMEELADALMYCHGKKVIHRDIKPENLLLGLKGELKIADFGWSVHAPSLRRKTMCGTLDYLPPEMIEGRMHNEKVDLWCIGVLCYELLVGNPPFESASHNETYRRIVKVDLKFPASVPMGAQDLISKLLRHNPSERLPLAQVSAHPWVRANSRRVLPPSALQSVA
metric.name: pIC50
For clarity, pIC50 is expressed as the negative log10 of concentration in mol/L.

Lookup: Recorded pIC50 for "Nc1ncnc2c1ncn2CC(=O)c1c[nH]c2ccccc12" with Aurora kinase B (Homo sapiens, UniProt Q96GD4), please?
Found: 4.16

====

IC50, Epidermal growth factor receptor (Homo sapiens): measured values
The answer is to be given in µM; state only the numeric part.

Nc1ncnc2c1ncn2CC(=O)c1cccnc1; 93

// below: IC50 requested for another compound
Lookup: Please provide the recorded IC50 for "Nc1ncnc2c1ncn2CC(=O)c1c[nH]c2ccccc12" , tested on Epidermal growth factor receptor (Homo sapiens).
Sequence (P00533 whole entry): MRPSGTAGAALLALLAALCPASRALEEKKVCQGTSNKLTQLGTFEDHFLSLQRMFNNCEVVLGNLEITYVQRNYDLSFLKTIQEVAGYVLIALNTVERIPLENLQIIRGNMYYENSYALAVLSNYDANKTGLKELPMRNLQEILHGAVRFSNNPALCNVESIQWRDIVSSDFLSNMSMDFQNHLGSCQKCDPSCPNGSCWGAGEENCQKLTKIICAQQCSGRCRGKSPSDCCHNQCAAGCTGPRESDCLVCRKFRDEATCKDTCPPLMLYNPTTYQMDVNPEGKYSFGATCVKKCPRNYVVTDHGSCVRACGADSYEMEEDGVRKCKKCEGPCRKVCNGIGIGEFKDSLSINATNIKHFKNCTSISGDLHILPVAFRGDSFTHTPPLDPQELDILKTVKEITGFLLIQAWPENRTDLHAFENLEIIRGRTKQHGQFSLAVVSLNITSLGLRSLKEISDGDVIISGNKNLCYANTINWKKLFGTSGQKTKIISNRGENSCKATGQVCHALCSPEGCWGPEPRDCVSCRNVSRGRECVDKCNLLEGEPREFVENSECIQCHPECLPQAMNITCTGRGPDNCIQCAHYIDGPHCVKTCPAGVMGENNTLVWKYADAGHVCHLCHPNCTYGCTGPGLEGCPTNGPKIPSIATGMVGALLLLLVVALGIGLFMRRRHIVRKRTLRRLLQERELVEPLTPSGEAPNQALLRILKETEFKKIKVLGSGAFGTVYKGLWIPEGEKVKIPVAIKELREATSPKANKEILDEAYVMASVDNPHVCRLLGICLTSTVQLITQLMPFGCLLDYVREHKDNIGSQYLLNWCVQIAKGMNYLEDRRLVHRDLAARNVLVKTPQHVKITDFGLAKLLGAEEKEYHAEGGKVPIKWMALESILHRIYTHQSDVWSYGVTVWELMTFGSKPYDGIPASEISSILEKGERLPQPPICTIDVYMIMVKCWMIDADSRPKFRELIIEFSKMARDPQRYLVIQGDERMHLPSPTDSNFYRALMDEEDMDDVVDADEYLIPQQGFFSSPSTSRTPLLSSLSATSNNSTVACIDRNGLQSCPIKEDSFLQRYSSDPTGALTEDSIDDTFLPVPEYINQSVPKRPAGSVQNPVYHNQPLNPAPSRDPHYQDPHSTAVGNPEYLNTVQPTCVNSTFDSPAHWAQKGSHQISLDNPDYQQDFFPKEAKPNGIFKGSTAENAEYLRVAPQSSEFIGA
Found: 35

Source: ChEMBL document CHEMBL1137681
